Cited source: a melting point compilation (Tetko et al.; mined from patent text by program, amines drawn as free bases though some values may be those of a salt)

// reported melting point per item

The examples below pair each entry with its known result.
>>> recorded_measurement("O=C(NNc1ccc(NC(=S)Nc2ccccc2)cc1)c1ccc(Cl)cc1")
"198 to 199 °C"
>>> recorded_measurement("NOC(C=CCBr)C(=O)O (stereo unspecified)")
"53 to 55 °C"
>>> recorded_measurement("CCN(CC)C1CCCCC1Oc1ccc(Cc2c(-c3ccc(OCCN4CCCC4)cc3)sc3cc(O)ccc23)cc1 (stereo unspecified)")
"95 to 100 °C"
>>> recorded_measurement("CC1(C)Cc2cc([N+](=O)[O-])cc(OCC3CO3)c2O1 (stereo unspecified)")
"108 °C"
>>> recorded_measurement("CC(=O)OCc1cc(=O)n2ccsc2n1")
"144 to 145 °C"

Ask | # return recorded melting point for input CCOCc1cc(COc2cc(CC)nc(C)c2OC)ccc1-c1ccccc1S(=O)(=O)Nc1noc(C)c1C
Reply | 64 to 72 °C

Ask | Note melting point for the compound shown: Cc1ccccc1CC(=NC#N)NC(NC(=O)Cc1ccc2cccnc2c1)C(C)(C)C (stereo unspecified)
Reply | 165 to 166 °C

Ask | Answer with the recorded melting point for the compound listed here: OC1(c2cccc(Cl)c2)CCN(c2nc3ccc(C(F)(F)F)cc3[nH]2)CC1
Reply | 247 °C

Ask | Specify melting point for OCC(O)CN1CCN(c2nccs2)CC1 (stereo unspecified) and stop.
Reply | 138 to 139 °C

Ask | Consider the compound CN(C)CCCC(c1ccncc1)S(=O)(=O)c1ccc(Cl)cc1 (stereo unspecified) and give its recorded melting point.
Reply | 78 to 80 °C
